# FACS-Seq fitted mean (log10) per entry
B1: library; a variant is named by its letters at N, in order (parent)
chain: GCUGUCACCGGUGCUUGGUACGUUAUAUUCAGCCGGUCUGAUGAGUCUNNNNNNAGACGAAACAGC

Variants of: B1
test.method.notes: FACS-Seq fitted mean relative fluorescence mCherry/BFP with ligand (log10 relative fluorescence); HEK293T overexpressing SLC46A1; ligand concentration (+) FACS-Seq: 6 mM; higher = higher reporter protein expression
test.conditions: with (6R,S)-folinic acid; ligand present: yes

{"columns": ["mutation.label", "FACS-Seq fitted mean (log10)"],
 "data": [
  ["AGGCAA", 0.205],
  ["UCCAAG", 0.489],
  ["AAUUGU", 0.334],
  ["ACGGUU", 0.495],
  ["CCUACA", -0.392],
  ["AUUUAC", 0.497],
  ["UUUGCU", 0.618],
  ["AUGAUU", 0.334],
  ["AAAGAC", 0.38],
  ["GGAGAC", 0.512],
  ["GGGUAG", 0.00328],
  ["AAACGU", 0.326],
  ["UCGGCU", 0.415],
  ["UGUCCA", 0.395],
  ["GACUUG", 0.389],
  ["UAUCAA", 0.277],
  ["UCCGAG", 0.131],
  ["GGUAGU", 0.316],
  ["AAAUAA", 0.383],
  ["ACGUGA", 0.173],
  ["AAUCCU", 0.476],
  ["UGGAAG", 0.695],
  ["AUGGAC", 0.259],
  ["AAUAUA", 0.436],
  ["UGAAAA", 0.692],
  ["CAAUUA", 0.429],
  ["GAGUCC", 0.569],
  ["CGUUAA", 0.486],
  ["AUGUAG", 0.615],
  ["GUAACC", 0.419],
  ["UAUUGA", 0.57],
  ["AAAUUU", 0.218],
  ["UCGAAG", -0.0157],
  ["UCGGAA", 0.24],
  ["CAAGCU", 0.443],
  ["CCUUUA", 0.136],
  ["AUGAGA", 0.537],
  ["AAAGAA", 0.569],
  ["CAUGAA", -0.0505],
  ["UAGUAG", 0.525],
  ["UAACUU", 0.408],
  ["AACGAA", 0.0527],
  ["GUACGG", 0.584],
  ["CUUGAU", 0.602],
  ["CUGAGA", -0.472],
  ["UCAAAA", 0.0601]
]}
